# Tested on: SN12C renal
# assayOverview: NCI tumour cell line growth inhibition, 48 h
Property: TGI; scope: individual compounds
measureName: TGI (µM)

{"compound": "Cc1ccc(S(=O)(=O)NC(=O)NNc2ccc(F)cc2)cc1", "measureName": "TGI", "valueQualifier": ">", "reportedValue": 100}
{"compound": "COc1ccc(N=Nc2c3c(c(O)c4ccccc24)CCC(C)(C)O3)cc1", "measureName": "TGI", "valueQualifier": "=", "reportedValue": 38.7}
{"compound": "COc1ccc2c(c1)C(C)Cc1c(ncnc1-n1cnc3cc(C)ccc31)N2C (stereo unspecified)", "measureName": "TGI", "valueQualifier": "=", "reportedValue": 20.5}
{"compound": "N#CC(=N)c1ncn(-c2ccccc2N)c1N", "measureName": "TGI", "valueQualifier": ">", "reportedValue": 100}
{"compound": "CCCCC#CS(=O)(=O)C(F)(F)F", "measureName": "TGI", "valueQualifier": ">", "reportedValue": 100}
{"compound": "O=C(CSC(c1ccccc1)c1ccccc1)N/N=C/c1ccco1", "measureName": "TGI", "valueQualifier": "=", "reportedValue": 35.7}

* * *

# Tested on: NCI-H522 lung
# assayOverview: NCI tumour cell line growth inhibition, 48 h
Recorded TGI for the following compounds

{"compound": "C=C(C)[C@@]1(O[Si](C)(C)C)CCCC[C@@H]1CC(Sc1ccccc1)Sc1ccccc1", "TGI": "20.4 µM"}
{"compound": "Cc1cc(C(C)(C)C)cc(Cc2cc(C(C)(C)C)cc(Cc3cc(C(C)(C)C)cc(C)c3O)c2O)c1O", "TGI": "13.2 µM"}
{"compound": "C[C@H]1CCC/C=C/[C@@H]2C[C@H](O)C[C@H]2[C@H](O)[C@@H](SCC(O)CO)CC(=O)O1 (stereo partly drawn)", "TGI": "> 100 µM"}
{"compound": "CC(C)CCn1nc(N)c2nc3ccccc3nc21", "TGI": "> 100 µM"}
{"compound": "COC(=O)c1cc(/C=C/c2ccc(S(N)(=O)=O)cc2)ccc1O", "TGI": "69.6 µM"}
{"compound": "CC(C)(C)c1ccc(OCC(=O)O)c(Cl)c1", "TGI": "> 100 µM"}
{"compound": "COc1ccc2c(c1)CCN=C2c1ccccc1CCCCl", "TGI": "52.5 µM"}
{"compound": "Cc1ncc([N+](=O)[O-])n1CCNS(=O)(=O)CCCn1ncnc1[N+](=O)[O-]", "TGI": "> 100 µM"}
{"compound": "NC(=O)c1ncn2c1NC(=O)CC2", "TGI": "> 100 µM"}
{"compound": "CCCCC#CS(=O)(=O)C(F)(F)F", "TGI": "> 100 µM"}
{"compound": "CC1=C[C@@H](C)C[C@]2(C)CC[C@H](O2)[C@]23CC[C@](C(=O)O)(C[C@H](O2)[C@@H]2O[C@@](C)(CC2=O)[C@@H](O)[C@H]2CC[C@@]4(CCC[C@@H](O4)[C@H](C)C(=O)O[C@H]4C[C@H]([C@]5(O)OCC[C@H](C)[C@@H]5O)O[C@H]4C=C1)O2)O3", "TGI": "> 10 µM"}
{"compound": "O=C(OCC(OC(=O)c1ccccc1)C(OC(=O)c1ccccc1)C(OC(=O)c1ccccc1)c1cnn(-c2ccccc2)n1)c1ccccc1 (stereo not drawn)", "TGI": "> 100 µM"}
{"compound": "CCN(CC)CCNc1ccc2ncn3c4cc(OC)c(OC)c(=O)c4c(O)c1c23", "TGI": "25.9 µM"}
{"compound": "COC(=O)c1cc2c(cc1CC(Cc1ccc3c(c1)CCC3)C(=O)OC)CCC2 (stereo not drawn)", "TGI": "> 100 µM"}
{"compound": "Cc1ccc(-c2c(C#N)c(-c3ccc([N+](=O)[O-])cc3)c(C#N)c(=O)n2NS(=O)(=O)c2ccccc2)cc1", "TGI": "> 100 µM"}
{"compound": "COC(=O)/C(=C\\c1ccc(N(CCC#N)CCC#N)cc1)NC(=O)c1cc([N+](=O)[O-])ccc1Cl", "TGI": "> 100 µM"}
{"compound": "C[C@]1(S(=O)(=O)c2ccccc2)C[C@H]2N(Cc3ccccc3)[C@@H]1CCC21OCCO1", "TGI": "> 100 µM"}
{"compound": "C[C@]12CC[C@H](O)C=C1CC[C@@H]1[C@@H]2CC[C@]2(C)C(c3ccc(=O)oc3)CC[C@]12O (stereo partly drawn)", "TGI": "0.0155 µM"}
